Cited source for all entries: patent US20230190857A1

Test system: human epidermal melanocyte (HEM)
assay overview: Cell viability, MTT assay, HEMs
Assay type: cell-based
run parameters: FIG. 6b
Peptide text beside a SMILES is read from it.

compound	HEMs cell viability / cytotoxicity
N=C(N)NCCC[C@H](N)C(=O)N[C@@H](Cc1ccccc1)C(=O)N[C@@H](Cc1c[nH]c2ccccc12)C(=O)NCC(N)=O [D3, Arg-Phe-Trp-Gly-NH2] (H-RFWG-NH2)	almost no cytotoxicity
CC(C)C[C@H](NC(=O)[C@@H](N)CCCNC(=N)N)C(=O)N[C@@H](Cc1c[nH]c2ccccc12)C(=O)NCC(N)=O [D5, Arg-Leu-Trp-Gly-NH2] (H-RLWG-NH2)	almost no cytotoxicity
NCC(N)=O [G1, glycinamide]	almost no cytotoxicity
NC(=O)CNC(=O)[C@@H](N)Cc1c[nH]c2ccccc12 [F1, Trp-Gly-NH2] (H-Trp-Gly-NH2)	almost no cytotoxicity
